This collection of values is drawn from the supplement of paper PMC4466140.

- system under test: ScBem1-D1
- assay procedure: SPOT peptide array binding signal intensity (averaged, normalized) (arbitrary units (background-subtracted, floor 0; scale differs between SH3 domains)); higher = stronger binding of the SH3 domain to the peptide
measured parameter: SPOT peptide array binding signal intensity

INSERT INTO results (binder, observed_result) VALUES
  ('GATNNAPTLPKRKNP', '≤ 0'),
  ('PPPPPPPPPPPLPQS', '≤ 0'),
  ('VDFTLPPPPPPPGLD', '≤ 0');
